Assayed target: full-length HAQ STING (Homo sapiens (Human), UniProt Q86WV6, G230A/H232R/R293Q/R71H)
Sequence (Q86WV6 other isoform, or with tags, fused parts or gaps, stated change not applied): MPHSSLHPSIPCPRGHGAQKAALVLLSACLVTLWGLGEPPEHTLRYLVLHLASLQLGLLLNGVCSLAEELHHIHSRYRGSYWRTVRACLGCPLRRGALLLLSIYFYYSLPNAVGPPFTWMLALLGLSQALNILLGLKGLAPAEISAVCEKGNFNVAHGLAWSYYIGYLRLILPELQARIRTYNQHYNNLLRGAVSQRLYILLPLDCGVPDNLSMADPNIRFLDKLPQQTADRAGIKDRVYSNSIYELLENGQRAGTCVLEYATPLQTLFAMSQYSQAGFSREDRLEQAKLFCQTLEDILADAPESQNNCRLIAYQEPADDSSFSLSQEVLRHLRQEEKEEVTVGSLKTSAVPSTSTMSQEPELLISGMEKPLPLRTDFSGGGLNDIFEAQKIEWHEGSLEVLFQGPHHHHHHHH
Measurement protocol: 3H-cGAMP filtration binding assay (HAQ STING)
Condition info: competition with tritiated cGAMP, HAQ STING membrane
# maps each entry to its EC50
Experimental endpoint: EC50 (nM)

{"columns": ["Compound", "Unit abbrev", "Bound operator", "Number"],
 "data": [
  ["Nc1nc2c(ncn2[C@@H]2O[C@@H]3COP(=O)(O)O[C@@H]4C[C@@H](COP(=O)(O)O[C@@H]2[C@@H]3F)O[C@H]4n2cnc3c(N)ncnc32)c(=O)[nH]1", "nM", "=", 3.7],
  ["Nc1nc2c(ncn2[C@@H]2O[C@@H]3COP(=O)(O)O[C@@H]4[C@H](F)[C@@H](COP(=O)(O)O[C@@H]2[C@@H]3F)O[C@H]4n2cnc3c(N)ncnc32)c(=O)[nH]1", "nM", "<", 1],
  ["Nc1nc2c(ncn2[C@H]2O[C@@H]3COP(=O)(O)O[C@@H]4[C@H](N)[C@@H](COP(=O)(O)O[C@@H]2[C@@H]3O)O[C@H]4n2cnc3c(N)ncnc32)c(=O)[nH]1", "nM", "<", 1],
  ["Nc1ncnc2c1ncn2[C@@H]1O[C@@H]2COP(=O)(S)O[C@@H]3[C@H](O)[C@@H](COP(=O)(S)O[C@@H]1[C@@H]2O)O[C@H]3n1cnc2c(N)ncnc21 (stereo partly drawn)", "nM", "=", 6.6],
  ["Nc1nc2c(ncn2[C@@H]2O[C@@H]3COP(=O)(O)O[C@@H]4C[C@@H](COP(=O)(O)O[C@@H]2[C@@H]3O)O[C@H]4n2cnc3c(N)ncnc32)c(=O)[nH]1", "nM", "=", 19],
  ["Nc1nc2c(ncn2[C@@H]2O[C@@H]3COP(=O)(O)O[C@@H]4[C@H](O)[C@@H](COP(=O)(O)O[C@@H]2C3)O[C@H]4n2cnc3c(N)ncnc32)c(=O)[nH]1", "nM", "=", 18.2],
  ["[N-]=[N+]=N[C@H]1[C@H]2OP(=O)(O)OC[C@H]3O[C@@H](n4cnc5c(N)ncnc54)[C@H](OP(=O)(O)OC[C@H]1O[C@H]2n1cnc2c(=O)[nH]c(N)nc21)[C@@H]3O", "nM", "<", 1],
  ["Nc1nc2c(ncn2[C@@H]2O[C@@H]3COP(=O)(O)O[C@@H]4[C@H](N)[C@@H](COP(=O)(O)O[C@@H]2[C@@H]3O)O[C@H]4n2cnc3c(N)ncnc32)c(=O)[nH]1", "nM", "=", 1.6],
  ["Nc1nc2c(ncn2[C@@H]2O[C@@H]3COP(=O)(O)O[C@@H]4[C@H](O)[C@@H](COP(=O)(O)O[C@@H]2[C@@H]3N)O[C@H]4n2cnc3c(N)ncnc32)c(=O)[nH]1", "nM", "=", 1.9]
]}

Recorded values, source patent US10738074B2.
